method notes: NCI Yeast Anticancer Drug Screen. Data for the rad50 strain (AID 155);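 also: 0% = growth of vehicle-only cultures of the same strain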
condition info: S. cerevisiae rad50 strain growth inhibition; at 50.0 µM; hits give high values
The panel holds about 79,000 compounds, 15% with a hit somewhere; the sample as a whole holds those more often.
Consider the following compounds and their measured growth inhibition readings.
Give the number; % is assumed, so skip it.

O=C1O[C@H]2C3C4CCC(C4[C@@H]2I)[C@H]13 (some centres undefined): -13.7
CCN(CC)Cc1cc(Nc2ncnc3sc(C)c(C)c23)ccc1O: 9.05
S=C(Nc1ccc2c(c1)Cc1ccccc1-2)Nc1ccc2c(c1)Cc1ccccc1-2: 25.8

Task: Would you kindly share the measured growth inhibition for Cc1ccc(S)c(C(O)(C(F)(F)F)C(F)(F)F)c1 ?
Result: -4.75

Task: Let us now turn to CC1(C)C(c2ccccc2)=NN(O)c2ccccc21
Result: -22.3

Task: Let us now turn to Nc1nc(N)c2c(Cl)c(CNc3ccc(C(=O)NC(CC(=O)O)CC(=O)O)cc3)ccc2n1
Result: 19

Task: Let us now turn to COC(=O)C(CC(=O)[C@H]1CC[C@H]2[C@@H]3CC[C@H]4C[C@@H](OC(C)=O)CC[C@]4(C)[C@H]3CC[C@]12C)OC(C)=O (some centres undefined)
Result: 51.5

Task: Let us now turn to CC(=O)C1=C(O)C(CSCc2ccccc2)NC1=O (centres undefined)
Result: 10.8

Task: Let us now turn to CCN(CC)Cc1ccccc1COC(=O)c1ccc(OC)cc1
Result: -0.1

Task: Let us now turn to Cc1ccc(NC(=S)NC(Cc2ccccc2)c2ccccc2)cc1 (centres undefined)
Result: 78.8

Task: Let us now turn to CC(C)N=C(c1ccccc1)N(O)c1ccccc1
Result: -0.4

Task: Let us now turn to CCOC(=O)c1cc2sc(NC(=O)c3ccco3)nc2o1
Result: 10.8

Task: Let us now turn to C[N+](C)(C)/N=C(/c1ccccc1)C1CCCCC1
Result: -20.2

Task: Let us now turn to Cc1nc2c(N3CCCCC3)ncnc2o1
Result: 7.3

Task: Let us now turn to CCOc1c(OC)cc(-c2nnc(SCCN(CC)CC)o2)cc1OC
Result: 11.4

Task: Let us now turn to O=C(c1ccccc1)N1C2C3CC(OCc4ccccc4)(OCc4ccccc4)C(O3)C21 (centres undefined)
Result: -8.35

Task: Let us now turn to O=CNc1ccc(Br)cc1
Result: -8.3

Task: Let us now turn to O=P(OC1=NCCN1Cc1ccccc1)(OC1=NCCN1Cc1ccccc1)N1CC1
Result: 16.9

Task: Let us now turn to CC(=O)c1c(N)n(C)c(=O)n(C)c1=O
Result: 36

Task: Let us now turn to C/C(=C(/C)c1cc[n+](C)cc1)c1cc[n+](C)cc1
Result: 74.4

Task: Let us now turn to COc1ccc(CC(N)C(=O)OCCCl)cc1 (centres undefined)
Result: 6.65

Task: Let us now turn to CCC(C)NC(=O)c1cccc2c1-c1ccccc1C2=O (centres undefined)
Result: -0.05

Task: Let us now turn to Cc1cc(C)c(S(=O)(=O)ONC(=O)OC(C)(C)C)c(C)c1
Result: 11.8

Task: Let us now turn to CCc1ccc(NC(=O)c2cc(OC)c(OC)c(OC)c2)cc1
Result: 1.1
